% Lysis Daudi 1 µg/ml ADCC for assorted binders
# System: T1, human CD20 (human, UniProt P11836 1-297)
# T1 sequence (looked up): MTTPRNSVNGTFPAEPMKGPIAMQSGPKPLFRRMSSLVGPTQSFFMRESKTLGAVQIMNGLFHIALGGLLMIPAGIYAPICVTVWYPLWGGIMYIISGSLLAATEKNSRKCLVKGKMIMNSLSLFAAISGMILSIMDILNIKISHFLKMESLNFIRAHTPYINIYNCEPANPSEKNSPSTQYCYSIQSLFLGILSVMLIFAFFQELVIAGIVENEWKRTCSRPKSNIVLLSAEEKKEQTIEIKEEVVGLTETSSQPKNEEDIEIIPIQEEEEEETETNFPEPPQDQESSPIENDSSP
# Procedure Summary: cell-based or functional assay
# output: numeric value plus its unit

Take a look at these entries with their results.
>>> experimental_value("mAb 1.12.3 (antibody, human IgG1, V domains shown) VH: EVQLVQSGAEVKKPGESLKISCKGSGYSFTSYWIGWVRQMSGKGLEWMGIIYPGDSDTRYSPSFQGQVTISADKSISTAYLQWSSLKASDTAIYYCARHPSYGSGSPNFDYWGQGTLVTVSS VL: DIVMTQTPLSSPVTLGQPASISCRSSQSLVYSDGNTYLSWLQQRPGQPPRLLFYKISNRFSGVPDRFSGSGAGTDFTLKISRVEAEDVGVYYCVQATQFPLTFGGGTKVEIK")
"63%"
>>> experimental_value("mAb 2.2.2 (antibody, human IgG1, V domains shown) VH: EVQLVQSGAEVKKPGESLKISCKGSGYSFTSYWIGWVRQMPGKGLEWMGIIYPGDSDTKYSPSFQGQVTISADKSISTAYLQWSSLKASDTAMYYCARQGDFWSGNGGMDVWGQGTTVTVSS VL: DIVMTQTPLSSPVTLGQPASISCRSSQSLVSRDGNTYLSWLQQRPGQPPRLLIYKISNRFSGVPDRFSGSGAGTDFTLKISRVEVEDVGVYYCMQATQFPITFGQGTRLEIK")
"79%"
>>> experimental_value("mAb 2.1.2 (ATCC Accession Number PTA-7328) (antibody, human IgG1, V domains shown, Human IgG1 kappa; also called 2.1.1; 50-001H2_1_1) VH: EVQLVQSGAEVKKPGESLKISCKGSGYSFTSYWIGWVRQMPGKGLEWMGIIYPGDSDTRYSPSFQGQVTISADKSISTAYLQWSSLKASDTAMYYCARQGDFWSGYGGMDVWGQGTTVTVSS VL: DIVMTQTPHSSPVTLGQPASISCRSSQSLVSRDGNTYLSWLQQRPGQPPRLLIYKISNRFSGVPNRFSGSGAGTDFTLKISRVKAEDVGVYYCMQATQFPLTFGQGTRLEIK")
"70%"

Now let's try a different one.
Sure, the documented % Lysis Daudi 1 µg/ml ADCC for mAb 1.13.2 (antibody, human IgG1, V domains shown, Human IgG1 kappa; also called 1.13.1; 50-001H1_13_1) VH: EVQLVQSGAEVKKPGESLKISCKGSGYSFTNYWIGWVRQMPGKGLEWMGIIYPGDSDTRYSPSFQGQVTISADKSISTAYLQWSSLKASDTAMYYCARQGDYYHYSGMDVWGQGTTVTVSS VL: DVVMTQSPLSLSVTLGQPASISCRSSQSLVYNDGDTYLNWFQQRPGQSPRLLIYKVSNWDSGVPDRFSGSGSGTDFTLKVSRVEAEDVGVYYCMQGTHWPLTFGGGTKVEIK is 74%
